This collection of values is drawn from PubChem BioAssay (NCI).

tested on: MCF7 breast; assay: NCI tumour cell line growth inhibition, 48 h
Quantity name: TGI

Record excerpt, results attached:
O=C(Nc1cccc(-n2cc(-c3ccncc3)c(-c3ccc(O)c(Cl)c3)n2)c1)Nc1ccc(Cl)c(Cl)c1 :: 5.23 µM
CCOC(=O)n1c2ccccc2c(=O)n1CCO :: > 100 µM
Nc1ncnc2c1N=C(c1ccccc1)CC(c1ccccc1)N2 (configuration not stated) :: > 100 µM

For every item in the list below, what is its measured TGI?
1. COc1ccc2c(C(=O)c3c(C)n(CCN4CCOCC4)c4ccccc34)cccc2c1
2. CCN(CC)Cc1cc(Nc2cc(C(F)(F)F)c(C#N)c3nc4ccccc4n23)ccc1O
3. CC1=NN(c2nc(N)nc(/C=C\c3ccccc3)n2)C(C)(C)C1
4. O=C(CN(/C=C/C(=O)C(F)(F)F)c1ccccc1)c1ccc(F)cc1

Reply:
["55.9 µM", "10.7 µM", "25.5 µM", "59.3 µM"]

For every item in the list below, what is its measured TGI?
1. O=S(=O)(c1ccc2ccccc2c1)N1CCN(S(=O)(=O)c2ccc3ccccc3c2)CC1
2. Cc1cc(C)c(S(=O)(=O)N(CCCN)OCCCN)c(C)c1

Reply:
> 100 µM
> 100 µM

For every item in the list below, what is its measured TGI?
1. C/C(=N\Nc1nc2ccccc2n1C)c1ccc2ccccc2n1
2. COc1ccc(C(=O)/C=C/c2ccc(OCc3ccccc3)c(OC)c2)cc1OC

Reply:
1. 27.4 µM
2. > 100 µM

For every item in the list below, what is its measured TGI?
1. COCCOCCOCCC(=O)NC1CC2CCC1(C)C2(C)C (configuration not stated)
2. CC(=O)Oc1ccc2cc(Oc3ccccc3)c(=O)oc2c1

Reply:
1. > 100 µM
2. > 100 µM

====

system: MDA-MB-231 breast; assay: NCI tumour cell line growth inhibition, 48 h
Quantity name: TGI (µM)
One number for each entry, in µM.

Record excerpt, results attached:
COc1cccc(/C=C2/S/C(=N/Nc3nc(C)c(C(C)=O)s3)NC2=O)c1O :: 44.8
OC(c1cc(-c2ccc(Cl)cc2)nc2c(Cl)cccc12)C1CCCCN1 (stereo not given) :: 3.02
Cc1nn2c(-c3nc4cc(Cl)c(Cl)cc4[nH]3)c(-c3ccc(F)cc3)nc2s1 :: 3.74

For every item in the list below, what is its measured TGI?
1. O=C1c2ccccc2/C=C\C(c2ccccc2)=N/N1c1ccccc1Cl
2. CCCCOc1ccc(S(=O)(=O)/N=C(\N)Nc2ccc(Cl)cc2)cc1

Reply:
49.2
29.7

====

test system: OVCAR-4 ovarian; assay: NCI tumour cell line growth inhibition, 48 h; in the data active means GI50 below about 0.43 µM; inactive means the rest
Respond using exactly one of the listed classes: YES for active, NO for inactive

COC(=O)C1=Nc2ccc(F)cc2/C1=C/c1sc(=S)[nH]c1O :: NO
CCN(CC)CCCNc1c2ccc(Cl)cc2nc2ccc(OC)cc12 :: YES
Oc1ccc(-c2[nH]c3ccccc3c2-c2nc3ccccc3o2)cc1 :: NO
CN(C)c1ccc2c(c1)OC(N)=C(C#N)C2c1ccc2c(c1)CCCN2C (stereo unspecified) :: NO
CC/C(=C(/c1ccc(/C=C/C(=O)O)cc1)c1ccc2[nH]ncc2c1)c1ccc(F)cc1Cl :: NO
O=C1C2C(C(=O)N1CC[Se][Se]CCN1C(=O)C3C(C1=O)[C@H]1C=C[C@@H]3C1)[C@H]1C=C[C@@H]2C1 (stereo partly specified) :: NO

Query: Fill in: this test's call for COc1ncc2cc1NS(=O)(=O)c1cccc(c1)C(=O)NCC1=CC=C(S1)c1ncnc3c1SC2=C3C is ___
Reply: NO

Query: Fill in: this test's call for Cc1ccc(-c2nc(C(Cl)Cl)nc3cc(C)nn23)cc1 is ___
Reply: NO

Query: Fill in: this test's call for Cc1ccc(NC(=O)c2ccc(NC3=C(Cl)C(=O)N(Cc4ccccc4)C3=O)cc2)cc1Cl is ___
Reply: NO

Query: Fill in: this test's call for CCN(CC)CCS(=O)(=O)CCNc1ccnc2cc(Cl)ccc12 is ___
Reply: NO

Query: Fill in: this test's call for CC(=O)Nc1cc(/C=C\C(=O)N2CC(CCl)c3c2cc(N)c2ccccc32)n(C)n1 (stereo unspecified) is ___
Reply: YES

====

test system: ACHN renal; assay: NCI tumour cell line growth inhibition, 48 h
Quantity name: TGI

CC1=C2CC(C)(C)CC(=O)C2(C)CCC1=O (stereo unspecified) :: > 100 µM
O=C1c2ccccc2/C=C\C(c2ccccc2)=N/N1c1ccccc1Cl :: > 100 µM
Cc1nn2c(-c3nc4cc(Cl)c(Cl)cc4[nH]3)c(-c3ccc(F)cc3)nc2s1 :: 5.25 µM
CCOP(=O)(/C=C/n1cnc2c(=O)n(C(C)=O)c(N)nc21)OCC :: > 100 µM
Cc1ccc(-c2nc(C(Cl)Cl)nc3cc(C)nn23)cc1 :: 3.6 µM

For every item in the list below, what is its measured TGI?
1. CC1=C(C(=O)CC(=O)C(=O)Nc2ccccc2C)Sc2ccccc2N1
2. Cc1cc(OC(=O)c2c(C)cc(OC(=O)c3c(C)cc(O)cc3O)cc2O)cc(O)c1C(=O)O

Reply:
> 100 µM
> 100 µM

For every item in the list below, what is its measured TGI?
1. Cn1c(=O)c(C(=O)NC23CC4CC(CC(C4)C2)C3)c(O)c2ccccc21
2. CC(=O)Nc1sccc1S(=O)(=O)c1ccc(Cl)cc1
3. Nc1nc2c(c(=O)[nH]1)NC(CCNc1ccc(C(=O)O)cc1)CN2 (stereo unspecified)
4. COc1cccc2c1[C@H]1OC(=O)NC1CCCCC2 (stereo partly specified)
5. COC(=O)[C@]1(C)CCCC2(C)C3=C(CCC21)CC1(CC3)SCCS1 (stereo partly specified)
6. COc1ccc(C(=O)/C=C/c2ccc(OCc3ccccc3)c(OC)c2)cc1OC
7. COc1ccc2c(C(=O)c3c(C)n(CCN4CCOCC4)c4ccccc34)cccc2c1
8. O=[N+]([O-])c1ccc(/C=C\c2ccc3c(c2)OCO3)c([N+](=O)[O-])c1

Reply:
1. 42.9 µM
2. > 100 µM
3. > 100 µM
4. > 100 µM
5. > 10 µM
6. > 100 µM
7. > 100 µM
8. 33.6 µM

For every item in the list below, what is its measured TGI?
1. CC1(CCCCO)C=CC(S(=O)(=O)c2ccccc2)CC1 (stereo unspecified)
2. CCCCC1Cc2cc(OC)ccc2-c2n1c1cc(OC)ccc1[n+]2C (stereo unspecified) (tested in a mixture with another compound)
3. CCOC(=O)[C@@H]1C[C@@H]1c1ccc(O)c(O)c1
4. O=C1c2ccccc2-c2c1c1ccc([N+](=O)[O-])cc1c(=O)n2CCCCl

Reply:
1. 18.1 µM
2. 48 µM
3. > 100 µM
4. > 100 µM

For every item in the list below, what is its measured TGI?
1. CN1CCOCCOCCOc2ccccc2NC(=O)c2nc(cnc2N)-c2ccc(cc2)S1(=O)=O
2. CCOC(=O)c1cc2cc(OCc3ccccc3)ccc2[nH]1

Reply:
1. > 100 µM
2. > 100 µM

====

system: SR leukemia; assay: NCI tumour cell line growth inhibition, 48 h; in the data active = GI50 below about 0.43 µM; inactive = the rest
Respond using exactly one of the listed classes: active, inactive

Reference set, count: 5
O=C(Nc1cccc(-n2cc(-c3ccncc3)c(-c3ccc(O)c(Cl)c3)n2)c1)Nc1ccc(Cl)c(Cl)c1 :: inactive
Cc1n(Cc2ccc3ccccc3n2)cc[n+]1Cc1ccc2ccccc2c1 :: inactive
N#Cc1cccc(C2C3=C(COC3=O)N(CCO)c3cc4c(cc32)CCC4)c1 (stereo not drawn) :: active
CC1=NN(c2nc(N)nc(/C=C\c3ccccc3)n2)C(C)(C)C1 :: inactive
Nc1n[nH]c2ccc([C@@H]3Nc4c(F)cc5[nH]ncc5c4[C@H]4C5CCC(C5)[C@@H]34)cc12 (stereo partly drawn) :: active

Query: Fill in: this test's call for Cc1cc(-c2ccco2)cc(C)c1/C=C/c1cncc(-c2nn[nH]n2)c1 is ___
Reply: inactive

Query: Fill in: this test's call for Oc1c(I)cc(Cl)c2cccnc12 is ___
Reply: inactive

Query: Fill in: this test's call for CN(C)c1ccc2c(c1)OC(N)=C(C#N)C2c1ccc2c(c1)CCCN2C (stereo not drawn) is ___
Reply: inactive

Query: Fill in: this test's call for O=C(/C=C/c1cccc(Oc2ccc(Cl)cc2)c1)c1ccccc1 is ___
Reply: inactive

Query: Fill in: this test's call for Nc1c(C(=O)Nc2ccccn2)sc2nc3c(cc12)CCCCCC3 is ___
Reply: active

Query: Fill in: this test's call for O=C(Nc1nc2c(s1)CCc1c-2c(Br)n(Cc2ccccc2)c1Br)c1ccccc1 is ___
Reply: inactive

Query: Fill in: this test's call for O=S(=O)(NCCCNc1nccc(-c2c(-c3cccc(F)c3)nc3occn23)n1)c1cccc2ccccc12 is ___
Reply: inactive
